- Test system: Chk1 (Homo sapiens, UniProt O14757)
- Construct: purchased Upstate Biotechnology
- Sequence (O14757 1-476): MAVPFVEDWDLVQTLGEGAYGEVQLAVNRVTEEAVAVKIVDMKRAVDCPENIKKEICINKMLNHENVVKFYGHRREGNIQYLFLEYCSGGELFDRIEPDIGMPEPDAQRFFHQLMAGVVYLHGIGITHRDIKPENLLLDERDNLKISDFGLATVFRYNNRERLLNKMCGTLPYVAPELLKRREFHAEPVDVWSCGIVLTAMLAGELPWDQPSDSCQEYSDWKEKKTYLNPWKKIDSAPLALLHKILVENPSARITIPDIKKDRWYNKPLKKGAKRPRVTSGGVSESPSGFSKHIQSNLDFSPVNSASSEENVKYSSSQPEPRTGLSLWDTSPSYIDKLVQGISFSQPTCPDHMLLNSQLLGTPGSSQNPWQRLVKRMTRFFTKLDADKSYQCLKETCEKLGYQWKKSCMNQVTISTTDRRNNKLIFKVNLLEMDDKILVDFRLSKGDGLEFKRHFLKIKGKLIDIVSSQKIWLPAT
- Method description: Chk1 kinase assay: incorporation of γ-33P ATP into immobilized myelin basic protein
- Type: biochemical
- Test settings: Table 11; Chk1 only; read-out: Chk1 IC50
Measured IC50 of individual entries

Illustrative cases are given below, each with its answer.
compound="Nc1ncc(-c2cccc(CN[C@H]3CCc4ccccc43)c2)nc1-c1nnc[nH]1 [Example 536]" test_system="Chk1 (Homo sapiens, UniProt O14757)" metric_name=IC50 experimental_value="0.05 to 1 µM"
compound="Nc1ncc(-c2cccc(C(=O)NCc3ccccc3)c2)nc1C(=O)N1CCN(Cc2ccccc2)CC1 [Example 575]" test_system="Chk1 (Homo sapiens, UniProt O14757)" metric_name=IC50 experimental_value="≥ 10 µM"
compound="CNC(=O)c1nc(-c2cccc(C(=O)NNc3ccc(F)cc3F)c2)cnc1N [Example 433]" test_system="Chk1 (Homo sapiens, UniProt O14757)" metric_name=IC50 experimental_value="0.05 to 1 µM"

(Q) Chk1 (Homo sapiens, UniProt O14757) / IC50 / Nc1ncc(-c2cccc(CN[C@H]3CCc4ccccc43)c2)nc1-c1nc(C2CCNCC2)n[nH]1 [Example 639] : value?
(A) 0.05 to 1 µM

(Q) Chk1 (Homo sapiens, UniProt O14757) / IC50 / Nc1ncc(-c2cccc(C(=O)N[C@H]3CCc4ccccc43)c2)nc1C(=O)NC[C@H]1CCNC1 [Example 785] : value?
(A) < 0.05 µM

(Q) Chk1 (Homo sapiens, UniProt O14757) / IC50 / CNC(=O)c1nc(-c2cccc(CNC3CCc4cc(Cl)ccc43)c2)cnc1N (centres unmarked) [Example 477] : value?
(A) < 0.05 µM

(Q) Chk1 (Homo sapiens, UniProt O14757) / IC50 / Nc1ncc(-c2cccc(CN[C@H]3CCc4ccccc43)c2)nc1C(=O)NCCc1c[nH]cn1 [Example 558] : value?
(A) < 0.05 µM

(Q) Chk1 (Homo sapiens, UniProt O14757) / IC50 / COc1ccc(N/N=C(\C)c2nc(-c3cccc(C(=O)NCc4ccccc4)c3)cnc2N)cc1 [Example 599] : value?
(A) 1 to 10 µM

====

- Test system: Chk1 (Homo sapiens, UniProt O14757)
- Construct: purchased Upstate Biotechnology
- Method description: Chk1 kinase assay: incorporation of γ-33P ATP into immobilized myelin basic protein
- Assay type: biochemical
- Test settings: Table 11; Chk1 only; read-out: Chk1 IC50
pIC50: −log10 of the molar value.
Metric name: pIC50

Illustrative cases are given below, each with its answer.
smiles_str=Nc1ncc(-c2cccc(C(=O)NCc3ccccc3)c2)nc1/C=N/Nc1ccccn1 test_system="Chk1 (Homo sapiens, UniProt O14757)" experimental_value="≤ 5.00"
smiles_str=COc1cccc(-c2n[nH]c(-c3nc(-c4cccc(CN[C@H]5CCc6ccccc65)c4)cnc3N)n2)c1 test_system="Chk1 (Homo sapiens, UniProt O14757)" experimental_value="6.00 to 7.30"

(Q) What does the record list as pIC50 for `Nc1ncc(-c2cccc(C(=O)NCc3ccccc3)c2)nc1C(=O)c1cc(F)cc(F)c1` ?
(A) ≤ 5.00

(Q) What does the record list as pIC50 for `CCOC(=O)CN/N=C(\C)c1nc(-c2cccc(C(=O)NCc3ccccc3)c2)cnc1N` ?
(A) ≤ 5.00

(Q) What does the record list as pIC50 for `Nc1ncc(-c2cccc(C(=O)N[C@@H]3c4ccccc4C[C@@H]3O)c2)nc1-c1nnc([C@H]2CCCNC2)[nH]1` ?
(A) > 7.30

====

- Test system: Chk1 (Homo sapiens, UniProt O14757)
- Construct: purchased Upstate Biotechnology
- Method description: Chk1 kinase assay: incorporation of γ-33P ATP into immobilized myelin basic protein
- Type: biochemical
- Test settings: read-out: Chk1 IC50
Measured IC50 of individual entries

Illustrative cases are given below, each with its answer.
molecule="CNC(=O)c1cc(-c2cccc(CO)c2)cnc1N [Example 35]" test_system="Chk1 (Homo sapiens, UniProt O14757)" metric_name=IC50 experimental_value="50 to 1000 nM"
molecule="CNC(=O)c1nc(-c2cccc(CNCc3ccc(F)cc3F)c2)cnc1N [Example 387]" test_system="Chk1 (Homo sapiens, UniProt O14757)" metric_name=IC50 experimental_value="< 50 nM"
molecule="CNC(=O)c1nc(-c2cccc(C(=O)NCC3CCCN3)c2)cnc1N (stereo not drawn) [Example 367]" test_system="Chk1 (Homo sapiens, UniProt O14757)" metric_name=IC50 experimental_value="50 to 1000 nM"

(Q) What does the record list as IC50 for CCN(CCOc1cccc(-c2cnc(N)c(C(=O)NC)n2)c1)Cc1ccccc1 [Example 178] ?
(A) 50 to 1000 nM

(Q) What does the record list as IC50 for CNC(=O)c1nc(-c2ccc(C(=O)NCc3ccccc3)cc2)cnc1N [Example 150] ?
(A) 1000 to 10000 nM

(Q) What does the record list as IC50 for CNC(=O)c1nc(-c2cccc(C(=O)NCc3ccncc3)c2)cnc1N [Example 123] ?
(A) 50 to 1000 nM

(Q) What does the record list as IC50 for CNC(=O)c1nc(-c2cccc(C(=O)NCc3ccccc3O)c2)cnc1N [Example 327] ?
(A) 50 to 1000 nM

(Q) What does the record list as IC50 for CNC(=O)c1nc(-c2cccc(C(=O)NCc3cccc(OC(F)(F)F)c3)c2)cnc1N [Example 218] ?
(A) 1000 to 10000 nM

(Q) What does the record list as IC50 for CNC(=O)c1nc(-c2cccc(C(=O)NCc3ccc(OC)cc3OC)c2)cnc1N [Example 115] ?
(A) 50 to 1000 nM

====

- Test system: Chk1 (Homo sapiens)
- Construct: purchased Upstate Biotechnology
- Method description: Chk1 kinase assay: incorporation of γ-33P ATP into immobilized myelin basic protein
- Type: biochemical
- Test settings: read-out: Chk1 IC50
- Protocol: Chk1 and Chk2 assays were performed by measuring incorporation of γ-^33P ATP into immobilized myelin basic protein (MBP). […] Each data point was measured in duplicate, and at least two duplicate assays were performed for each individual compound determination. […] The above assay procedure can be used to determine the IC50 for inhibition and/or the inhibition constant Ki. […] The Ki for a compound may be determined from the IC50 based on three assumptions. […]
Measured IC50 of individual entries

Illustrative cases are given below, each with its answer.
smiles_str=CNC(=O)c1nc(-c2cccc(C(=O)NCc3cccc(N4CCOCC4)c3)c2)cnc1N experimental_value="1 to 10 µM"
smiles_str=CNC(=O)c1nc(-c2cccc(NC(=O)c3ccco3)c2)cnc1N experimental_value="0.05 to 1 µM"
smiles_str=CNC(=O)c1nc(-c2cccc(CNC(=O)c3cc(F)ccc3F)c2)cnc1N experimental_value="0.05 to 1 µM"
smiles_str=CNC(=O)c1nc(-c2cccc(C(=O)N[C@H]3CCN(Cc4ccccc4)C3)c2)cnc1N experimental_value="0.05 to 1 µM"
smiles_str=CNC(=O)c1nc(-c2cccc(C(=O)NCc3ccc4c(c3)NCCO4)c2)cnc1N experimental_value="0.05 to 1 µM"

Consider the record given below.
(Q) Chk1 (Homo sapiens) / IC50 / `CNC(=O)c1nc(-c2cccc(CN[C@@H]3c4ccccc4C[C@@H]3O)c2)cnc1N` : value?
(A) < 0.05 µM

====

- Test system: Chk1 (Homo sapiens)
- Construct: purchased Upstate Biotechnology
- Method description: Chk1 kinase assay: incorporation of γ-33P ATP into immobilized myelin basic protein
- Format: biochemical
- Test settings: Table 11; Chk1 only; read-out: Chk1 IC50
pIC50: −log10 of the molar value.
Metric name: pIC50

Illustrative cases are given below, each with its answer.
molecule=C/C(=N\N1CCN(C)CC1)c1nc(-c2cccc(C(=O)NCc3ccccc3)c2)cnc1N test_system="Chk1 (Homo sapiens)" metric_name=pIC50 experimental_value="6.00 to 7.30"
molecule="CNC(=O)c1nc(-c2cccc(CNC3CCc4c(O)cccc43)c2)cnc1N (centres unmarked)" test_system="Chk1 (Homo sapiens)" metric_name=pIC50 experimental_value="> 7.30"
molecule="CNC(=O)c1nc(-c2cccc(CNC3CCc4ccc(F)cc43)c2)cnc1N (centres unmarked)" test_system="Chk1 (Homo sapiens)" metric_name=pIC50 experimental_value="> 7.30"
molecule=CCN1CC[C@H](NC(=O)c2nc(-c3cccc(C(=O)N[C@@H]4c5ccccc5C[C@@H]4O)c3)cnc2N)C1 test_system="Chk1 (Homo sapiens)" metric_name=pIC50 experimental_value="6.00 to 7.30"
molecule=N=C(NN1CCCCC1)c1nc(-c2cccc(C(=O)NCc3ccccc3)c2)cnc1N test_system="Chk1 (Homo sapiens)" metric_name=pIC50 experimental_value="≤ 5.00"

(Q) What does the record list as pIC50 for CCn1nc(-c2nc(-c3cccc(C(=O)N[C@@H]4CCc5ccccc54)c3)cnc2N)nc1C1CCCNC1 (some centres unmarked) ?
(A) 6.00 to 7.30

(Q) What does the record list as pIC50 for Nc1ncc(-c2cccc(C(=O)N[C@@H]3c4ccccc4C[C@@H]3O)c2)nc1C(=O)NC1CCCNCC1 (some centres unmarked) ?
(A) > 7.30

(Q) What does the record list as pIC50 for `Nc1ncc(-c2cccc(CN[C@H]3CCc4ccccc43)c2)nc1C(=O)NCCCN1CCCC1` ?
(A) 5.00 to 6.00

Where do these numbers come from? They come from patent US7704995B2.
